Molecular target: rh integrin α4β7 (R&D Systems #5397-A30) (human) (UniProt P13612)
Assay: α4β7-MAdCAM competition ELISA
pIC50: −log10 of the molar value. Bridge positions count the residues as written; N and C are the ends. Square brackets hold non-standard residues; d marks the D form. Bip = N[C@@H](Cc1ccc(-c2ccccc2)cc1)C(=O)O; 1Nal = N[C@@H](Cc1cccc2ccccc12)C(=O)O; 2Nal = N[C@@H](Cc1ccc2ccccc2c1)C(=O)O; NMeR = CN[C@@H](CCCNC(=N)N)C(=O)O; Pen = CC(C)(S)[C@H](N)C(=O)O; dNMeK = CN[C@H](CCCCN)C(=O)O
Catalogue of pIC50 readings, one per entry.

[
  {
    "Binder": "Ac-[Pen][NMeR]SDTL[Pen][Bip]E[dK]-NH2 (disulfide 1-7 (inferred); also: homodimer via DIG) [SEQ ID NO 134]",
    "pIC50": "> 8.00"
  },
  {
    "Binder": "Ac-[Pen][NMeR]SDTL[Pen][1Nal][dE][dK]-NH2 (disulfide 1-7 (inferred)) [SEQ ID NO 8]",
    "pIC50": "< 7.60"
  },
  {
    "Binder": "Ac-[Pen][NMeR]SDTL[Pen][1Nal][dE][dNMeK]-NH2 (disulfide 1-7 (inferred); also: homodimer via DIG linker) [SEQ ID NO 38]",
    "pIC50": "> 8.00"
  },
  {
    "Binder": "Ac-[Pen][NMeR]SDTL[Pen][2Nal][dE][dNMeK]-NH2 (disulfide 1-7 (inferred)) [SEQ ID NO 13]",
    "pIC50": "< 8.00"
  },
  {
    "Binder": "Ac-[Pen][NMeR]SDTL[Pen][1Nal]E[dK]-NH2 (disulfide 1-7 (inferred); also: homodimer via DIG) [SEQ ID NO 24]",
    "pIC50": "> 8.00"
  }
]
